# ASSAY_NAME: Potentiation of amphetamine-induced lethal activity in Wistar albino rat assessed as mortality after 4 days
# Type: organism-based
# EXPERIMENTAL_PARAMETERS: in vivo, read-out: Activity
METRIC: mortality at 96 h (%)

molecule="COc1ccc(C[C@H]2c3cc(O)c(OC)cc3CCN2C)cc1O [(S)-RETICULINE]" u=% observed=60
